Assayed system: T1, Cynomolgus OSM (cynomolgus, UniProt A0A2K5VPC6 26-221)
T1 construct: also called Cyno OSM; cynomolgus macaque OSM
T1 sequence: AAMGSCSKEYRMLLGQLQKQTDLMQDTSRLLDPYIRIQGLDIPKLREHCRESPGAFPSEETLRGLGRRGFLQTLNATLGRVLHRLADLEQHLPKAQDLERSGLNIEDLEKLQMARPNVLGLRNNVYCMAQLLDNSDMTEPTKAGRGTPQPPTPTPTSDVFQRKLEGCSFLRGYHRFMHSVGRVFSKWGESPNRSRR
Experimental protocol: BIAcore kinetics, purified antibody
Each item that follows carries a reported kon.
Output spec: scalar in M⁻¹ s⁻¹, unitless text.

Binder: Humanised 10G8 H0L4 (antibody, V domains shown) VH: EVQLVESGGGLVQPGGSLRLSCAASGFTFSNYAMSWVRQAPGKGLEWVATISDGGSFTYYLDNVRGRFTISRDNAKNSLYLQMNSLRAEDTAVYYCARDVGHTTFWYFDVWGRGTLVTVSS VL: DIVMTQSPDSLAVSLGERATINCRASKSVSAAGYNFMHWYQQKPGQPPKVLIYYASNLESGVPDRFSGSGSGTDFTLTISSLQAEDVVVYYCLHSREFPFTFGGGTNVEIK
Readout units: M⁻¹ s⁻¹
Assay result: 418000
//
Binder: Humanised 10G8 H2L4 (antibody, V domains shown) VH: EVQLVESGGGLVQPGGSLRLSCAASGFTFSNYAMSWVRQAPGKGLEWVATISDGGSFTYYLDNVRGRFTISRDNAKNSLYLQMNSLRAEDTAVYYCARDVGHTTFWYFDVWGSGTLVTVSS VL: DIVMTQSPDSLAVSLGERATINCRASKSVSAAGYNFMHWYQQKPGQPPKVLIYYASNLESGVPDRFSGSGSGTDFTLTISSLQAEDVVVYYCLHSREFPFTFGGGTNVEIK
Readout units: M⁻¹ s⁻¹
Assay result: 441000

Inquiry: Look up kon for this binder: Humanised 10G8 H0L1 (antibody, human IgG1, kappa, V domains shown, IgG1 kappa; mature H0 heavy chain and mature L1 light chain; also called Humanised 10G8 H0L1 parent) VH: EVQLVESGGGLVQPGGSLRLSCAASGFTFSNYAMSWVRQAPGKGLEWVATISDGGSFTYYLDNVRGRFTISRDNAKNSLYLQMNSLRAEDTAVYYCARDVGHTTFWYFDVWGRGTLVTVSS VL: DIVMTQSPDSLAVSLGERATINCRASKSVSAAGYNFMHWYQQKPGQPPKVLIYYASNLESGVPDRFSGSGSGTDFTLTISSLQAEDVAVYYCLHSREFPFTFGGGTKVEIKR
Reply text: 426000

Inquiry: Look up kon for this binder: Humanised 10G8 H2L1 (antibody, V domains shown) VH: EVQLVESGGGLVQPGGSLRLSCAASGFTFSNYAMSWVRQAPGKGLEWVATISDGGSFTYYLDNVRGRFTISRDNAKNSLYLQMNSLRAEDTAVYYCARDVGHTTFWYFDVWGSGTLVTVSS VL: DIVMTQSPDSLAVSLGERATINCRASKSVSAAGYNFMHWYQQKPGQPPKVLIYYASNLESGVPDRFSGSGSGTDFTLTISSLQAEDVAVYYCLHSREFPFTFGGGTKVEIK
Reply text: 414000

Inquiry: Look up kon for this binder: 15E10h, non-competitive anti-OSM humanised antibody (antibody, human IgG1, kappa, V domains shown, also called Humanised 15E10; humanised 15E10) VH: QVQLVESGGGVVQPGRSLRLSCAASGFSLTNYGVHWVRQAPGKGLEWVAVIWRGGSTDYNAAFMSRFTISKDNSKNTLYLQMNSLRAEDTAVYYCAKSPNSNFYWYFDVWGRGTLVTVSS VL: EIVLTQSPATLSLSPGERATLSCSGSSSVSYMYWYQQKPGQAPRLLIEDTSNLASGIPARFSGSGSGTDYTLTISNLEPEDFAVYYCQQWSSYPPTFGQGTKLEIKR
Reply text: 526000

Inquiry: Look up kon for this binder: Humanised 10G8 H1L1 (antibody, V domains shown) VH: EMQLVESGGGLVQPGGSLRLSCAASGFTFSNYAMSWVRQAPGKGLEWVATISDGGSFTYYLDNVRGRFTISRDNAKNSLYLQMNSLRAEDTAVYYCARDVGHTTFWYFDVWGRGTLVTVSS VL: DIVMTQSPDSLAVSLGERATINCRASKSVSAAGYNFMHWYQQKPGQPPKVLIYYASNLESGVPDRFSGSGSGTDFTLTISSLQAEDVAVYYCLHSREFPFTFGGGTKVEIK
Reply text: 428000
